resultType: melting point

Go through the list and state melting point for each entry.
1. O=C1N(C[C@H]2CCCO2)c2c(Cl)cccc2C12COc1cc3c(cc12)CCO3 (stereo partly shown) [Example 8.1]
2. O=C1N(Cc2ccc(OCc3ccccc3)cc2)c2ccccc2C12COc1cc3c(cc12)OCCO3 (stereo not shown) [Example 9.37]

OUTPUT:
192 to 193 °C
87 to 89 °C

Go through the list and state melting point for each entry.
1. O=C1Nc2ccccc2C12COc1c2ccc2c1OCCO2 (stereo not shown) [Example 3.48]
2. O=C1N(C[C@@H]2COCCO2)c2ccccc2[C@@]12COc1cc3c(cc12)OCCO3 [Example 8.5]

OUTPUT:
> 250 °C
198 to 199 °C

----------
biological target: CYP3A4 (Homo sapiens, UniProt P08684); test: Cytochrome P450 (CYP450) Inhibition Assay, CYP3A4 (Vivid fluorescence, BOMCC substrate); details: human, P450 Baculosomes (recombinant CYP3A4), probe BOMCC (Vivid substrate)
Sequence (P08684 whole entry): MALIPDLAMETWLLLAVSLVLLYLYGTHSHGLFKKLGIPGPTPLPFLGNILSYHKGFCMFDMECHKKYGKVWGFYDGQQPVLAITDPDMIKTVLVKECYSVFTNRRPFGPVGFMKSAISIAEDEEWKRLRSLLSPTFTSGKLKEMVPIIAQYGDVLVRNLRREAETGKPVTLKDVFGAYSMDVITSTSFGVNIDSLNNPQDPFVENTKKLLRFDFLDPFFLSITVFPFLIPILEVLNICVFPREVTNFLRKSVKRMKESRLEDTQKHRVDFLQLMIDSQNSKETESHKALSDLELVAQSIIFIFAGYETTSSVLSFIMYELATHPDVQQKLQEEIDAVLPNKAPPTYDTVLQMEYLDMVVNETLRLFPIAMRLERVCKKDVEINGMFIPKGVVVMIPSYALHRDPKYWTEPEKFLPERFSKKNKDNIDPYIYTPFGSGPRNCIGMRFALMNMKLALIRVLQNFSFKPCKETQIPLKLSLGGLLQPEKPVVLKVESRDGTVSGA
Where a name gives a salt, the structure may show the parent alone.
resultType: inhibition at 10 µM

Use the examples below as a reference point.
molecule	inhibition at 10 µM
O=C1N(Cc2ccc(O)cc2)c2ccccc2C12COc1cc3c(cc12)OCCO3 (centres unmarked)	> 50%
Cc1noc2cc3c(cc12)C1(CO3)C(=O)N(Cc2cccnc2)c2ccccc21 (centres unmarked)	> 50%
O=C1Nc2cccc(Cl)c2C12COc1cc3c(cc12)CCO3 (centres unmarked)	> 50%
CN1CCOC(CN2C(=O)C3(COc4cc5c(cc43)OCCO5)c3ccccc32)C1 (centres unmarked)	> 50%
CN1C(=O)C2(COc3cc4c(cc32)OCCO4)c2c(NC(=O)NC3CCCCC3)cccc21 (centres unmarked)	< 50%

Go through the list and state inhibition at 10 µM for each entry.
1. O=C1N(Cc2ccc(O)cn2)c2ccccc2C12COc1cc3c(c(F)c12)OCCO3 (centres unmarked)
2. O=C(NCC1CCCCC1)c1cccc(CN2C(=O)C3(COc4cc5c(cc43)CCO5)c3ccccc32)c1 (centres unmarked)

OUTPUT:
> 50%
> 50%

Go through the list and state inhibition at 10 µM for each entry.
1. CN(C)C(=O)c1cc(CN2C(=O)C3(COc4cc5c(cc43)OCO5)c3ccccc32)oc1C(F)(F)F (centres unmarked)
2. Cn1c(=O)oc2cc3c(cc21)C1(CO3)C(=O)N(C[C@H]2CCCO2)c2ccccc21 (some centres unmarked)
3. Cc1nc(-c2cccc3c2C2(COc4cc5c(cc42)OCCO5)C(=O)N3C)no1 (centres unmarked)

OUTPUT:
1: > 50%; 2: < 50%; 3: < 50%

Go through the list and state inhibition at 10 µM for each entry.
1. CN1C(=O)C2(COc3cc4c(cc32)OCCO4)c2c(NC(=O)C3CCCCC3)cccc21 (centres unmarked)
2. O=C1Nc2cc3c(cc2C12COc1cc4c(cc12)CCO4)OCCO3 (centres unmarked)

OUTPUT:
1: < 50%; 2: > 50%

Go through the list and state inhibition at 10 µM for each entry.
1. CN1CCC(CN2C(=O)C3(COc4cc5c(cc43)OCCO5)c3ccccc32)CC1 (centres unmarked) [Example 11.101, hydrochloride]
2. CN1C(=O)C2(COc3cc4c(cc32)OCCO4)c2c(N)cccc21 (centres unmarked)
3. CN1C(=O)COc2cc3c(cc21)OCC31C(=O)N(C[C@H]2CCCO2)c2ccccc21 (some centres unmarked)

OUTPUT:
1: < 50%; 2: < 50%; 3: < 50%
